# experimental.system: High affinity cAMP-specific and IBMX-insensitive 3',5'-cyclic phosphodiesterase 8A (Homo sapiens)
# Sequence (O60658 whole entry): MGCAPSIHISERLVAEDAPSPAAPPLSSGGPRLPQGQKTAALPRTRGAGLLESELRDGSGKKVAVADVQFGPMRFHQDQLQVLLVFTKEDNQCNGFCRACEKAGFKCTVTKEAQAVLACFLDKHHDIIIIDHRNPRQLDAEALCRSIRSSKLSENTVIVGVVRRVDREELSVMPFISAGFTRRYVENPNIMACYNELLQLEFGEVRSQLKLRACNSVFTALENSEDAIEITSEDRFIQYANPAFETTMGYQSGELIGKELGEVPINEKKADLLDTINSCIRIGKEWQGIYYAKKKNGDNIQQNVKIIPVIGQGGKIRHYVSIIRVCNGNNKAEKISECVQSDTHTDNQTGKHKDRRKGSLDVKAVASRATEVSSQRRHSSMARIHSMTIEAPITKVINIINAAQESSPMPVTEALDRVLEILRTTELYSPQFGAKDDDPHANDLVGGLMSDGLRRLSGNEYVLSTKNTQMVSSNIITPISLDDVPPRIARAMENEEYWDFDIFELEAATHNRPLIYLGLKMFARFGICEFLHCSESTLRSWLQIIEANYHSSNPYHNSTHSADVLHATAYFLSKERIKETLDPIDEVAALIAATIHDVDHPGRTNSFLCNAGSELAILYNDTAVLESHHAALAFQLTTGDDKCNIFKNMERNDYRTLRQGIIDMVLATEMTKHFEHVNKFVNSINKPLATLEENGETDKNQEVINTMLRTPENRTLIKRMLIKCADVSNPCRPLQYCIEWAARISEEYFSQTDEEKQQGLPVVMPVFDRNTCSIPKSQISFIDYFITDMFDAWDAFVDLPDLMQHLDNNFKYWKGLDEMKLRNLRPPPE
# assay.name: Inhibition of human recombinant PDE8A
Entries and their IC50 values follow.
result.type: IC50

>>> print(df.to_string())
                               given_smiles  value_reported
0  O=C(Nc1ccc(N2CCOCC2)cc1)c1cn(Cc2c(F)cccc2Cl)c2ccc(=O)[nH]c2c1=O       > 1000 nM
1  CCN(CC)c1ccc(NC(=O)c2cn(Cc3c(F)cccc3Cl)c3ccc(=O)[nH]c3c2=O)cc1       > 5000 nM

---

# experimental.system: cGMP-specific 3',5'-cyclic phosphodiesterase (Homo sapiens)
# assay.name: Inhibition of human recombinant PDE5A
pIC50: −log10 of the molar value.
result.type: pIC50

>>> df
                               given_smiles  result_type  value_reported
0  O=C(Nc1ccc(N2CCOCC2)cc1)c1cn(Cc2c(F)cccc2Cl)c2ccc(=O)[nH]c2c1=O        pIC50          < 6.00
1  CCN(CC)c1ccc(NC(=O)c2cn(Cc3c(F)cccc3Cl)c3ccc(=O)[nH]c3c2=O)cc1        pIC50          < 5.30

---

# experimental.system: High affinity 3',5'-cyclic-AMP phosphodiesterase 7A (Homo sapiens)
# Sequence (Q13946 whole entry): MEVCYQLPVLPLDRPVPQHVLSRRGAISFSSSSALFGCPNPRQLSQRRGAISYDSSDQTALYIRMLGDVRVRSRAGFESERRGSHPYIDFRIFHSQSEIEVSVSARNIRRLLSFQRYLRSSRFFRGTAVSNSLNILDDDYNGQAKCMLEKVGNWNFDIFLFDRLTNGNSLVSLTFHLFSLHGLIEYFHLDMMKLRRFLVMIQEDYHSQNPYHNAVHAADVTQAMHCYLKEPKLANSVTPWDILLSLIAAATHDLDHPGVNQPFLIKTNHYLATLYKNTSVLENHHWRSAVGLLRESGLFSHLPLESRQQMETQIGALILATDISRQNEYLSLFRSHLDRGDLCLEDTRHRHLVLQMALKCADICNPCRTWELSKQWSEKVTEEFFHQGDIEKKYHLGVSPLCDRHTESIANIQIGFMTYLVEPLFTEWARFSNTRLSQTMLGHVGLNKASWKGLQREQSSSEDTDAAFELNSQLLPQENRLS
# assay.name: Inhibition of human recombinant PDE7A1 expressed in baculovirus infected insect Sf21 cells after 30 mins by scintillation proximity assay
Entries and their IC50 values follow.
result.type: IC50 (µM)

>>> df
                               given_smiles  operator  value_reported
0  CNC(=O)c1ccc(NC(=O)c2cn(Cc3c(F)cccc3F)c3ccc(=O)[nH]c3c2=O)cc1         =           0.029
1  NC(=O)c1cccc(NC(=O)c2cn(Cc3c(F)cccc3Cl)c3ccc(=O)[nH]c3c2=O)c1         =           0.044
2  CCN(CC)c1ccc(NC(=O)c2cn(Cc3c(F)cccc3Cl)c3ccc(=O)[nH]c3c2=O)cc1         =            0.06
3  COc1cc(NC(=O)c2cn(Cc3ccc(F)cc3Cl)c3ccc(=O)[nH]c3c2=O)cc(OC)c1OC         =           0.192
4  CNC(=O)c1ccc(NC(=O)c2cn(Cc3c(F)cccc3Cl)c3ccc(=O)[nH]c3c2=O)cc1         =           0.018
5  O=C(Nc1ccc(N2CCOCC2)cc1)c1cn(Cc2c(F)cccc2Cl)c2ccc(=O)[nH]c2c1=O         =           0.013
6  NS(=O)(=O)c1ccc(NC(=O)c2cn(Cc3c(F)cccc3Cl)c3ccc(=O)[nH]c3c2=O)cc1         =            0.02
7  O=C(Nc1ccc(N2CCOCC2)cc1)c1cn(Cc2ccc(F)cc2)c2ccc(=O)[nH]c2c1=O         =            2.38
8  COc1cc(NC(=O)c2cn(Cc3ccccc3Br)c3ccc(=O)[nH]c3c2=O)cc(OC)c1OC         >               1

---

Entries and their IC50 values follow.
# experimental.system: 3',5'-cyclic-AMP phosphodiesterase 4A (Homo sapiens, UniProt P27815)
# Sequence (P27815 whole entry): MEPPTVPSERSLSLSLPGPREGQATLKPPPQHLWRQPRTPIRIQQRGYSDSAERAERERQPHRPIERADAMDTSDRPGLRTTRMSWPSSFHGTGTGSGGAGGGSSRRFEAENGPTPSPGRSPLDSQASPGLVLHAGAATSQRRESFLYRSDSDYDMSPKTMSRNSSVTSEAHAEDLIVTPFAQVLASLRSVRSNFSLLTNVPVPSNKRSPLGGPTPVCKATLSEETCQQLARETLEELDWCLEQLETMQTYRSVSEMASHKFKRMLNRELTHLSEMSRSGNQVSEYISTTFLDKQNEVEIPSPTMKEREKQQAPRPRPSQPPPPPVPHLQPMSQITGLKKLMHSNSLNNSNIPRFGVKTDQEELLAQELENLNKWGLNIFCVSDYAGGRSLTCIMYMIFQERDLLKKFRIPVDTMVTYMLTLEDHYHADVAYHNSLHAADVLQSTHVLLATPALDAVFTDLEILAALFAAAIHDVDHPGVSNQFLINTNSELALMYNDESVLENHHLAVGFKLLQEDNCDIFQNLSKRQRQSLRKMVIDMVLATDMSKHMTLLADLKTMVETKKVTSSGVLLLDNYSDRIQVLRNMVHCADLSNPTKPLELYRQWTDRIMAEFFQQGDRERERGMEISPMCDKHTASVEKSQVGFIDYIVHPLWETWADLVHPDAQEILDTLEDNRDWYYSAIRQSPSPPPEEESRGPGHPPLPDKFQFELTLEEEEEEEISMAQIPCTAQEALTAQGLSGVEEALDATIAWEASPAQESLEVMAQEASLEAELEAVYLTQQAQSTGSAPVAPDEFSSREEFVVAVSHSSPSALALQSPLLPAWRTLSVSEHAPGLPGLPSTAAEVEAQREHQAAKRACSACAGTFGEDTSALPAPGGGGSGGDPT
# assay.name: Inhibition of human recombinant PDE4A4 expressed in baculovirus infected insect Sf21 cells after 30 mins by scintillation proximity assay
result.type: IC50

>>> print(df.to_string())
                               given_smiles  value_reported
0  O=C(Nc1ccc(O)cc1)c1cn(Cc2c(F)cccc2F)c2ccc(=O)[nH]c2c1=O       > 1000 nM
1  O=C(Nc1ccc(N2CCOCC2)cc1)c1cn(Cc2ccccc2)c2ccc(=O)[nH]c2c1=O       > 1000 nM
2  O=C(Nc1ccc(C(F)(F)F)cc1)c1cn(Cc2c(F)cccc2F)c2ccc(=O)[nH]c2c1=O       > 1000 nM
3  COc1cc(NC(=O)c2cn(Cc3ccccc3Br)c3ccc(=O)[nH]c3c2=O)cc(OC)c1OC       > 1000 nM
4  CN(C)c1ccc(NC(=O)c2cn(Cc3c(F)cccc3F)c3ccc(=O)[nH]c3c2=O)cc1          471 nM
5  O=C(Nc1ccc(N2CCOCC2)cc1)c1cn(Cc2c(F)cccc2F)c2cccnc2c1=O          379 nM
6  O=C(Nc1ccc(N2CCOCC2)cc1)c1cn(Cc2ccc(F)cc2F)c2ccc(=O)[nH]c2c1=O       > 1000 nM
7  COc1ccc2c(n1)c(=O)c(C(=O)Nc1ccc(N3CCOCC3)cc1)cn2Cc1c(F)cccc1F       > 5000 nM
8  O=C(Nc1ccc(F)cc1)c1cn(Cc2c(F)cccc2F)c2ccc(=O)[nH]c2c1=O       > 1000 nM

---

# experimental.system: High affinity 3',5'-cyclic-AMP phosphodiesterase 7A (Homo sapiens)
# assay.name: Inhibition of human recombinant PDE7A1 expressed in baculovirus infected insect Sf21 cells after 30 mins by scintillation proximity assay
result.type: IC50 (nM)

>>> print(df.to_string())
                               given_smiles                       experimental_system  result_type  operator  value_reported
0  O=C(Nc1c(F)cccc1F)c1cn(Cc2c(F)cccc2F)c2ccc(=O)[nH]c2c1=O  High affinity 3',5'-cyclic-AMP phosphodiesterase 7A (Homo sapiens)         IC50         >            1000
1  O=C(O)Cc1ccc(NC(=O)c2cn(Cc3c(F)cccc3F)c3ccc(=O)[nH]c3c2=O)cc1  High affinity 3',5'-cyclic-AMP phosphodiesterase 7A (Homo sapiens)         IC50         =             176
2  COc1cc(NC(=O)c2cn(Cc3ccccc3F)c3ccc(=O)[nH]c3c2=O)cc(OC)c1OC  High affinity 3',5'-cyclic-AMP phosphodiesterase 7A (Homo sapiens)         IC50         =             206
3  O=C(Nc1ccc(N2CCOCC2)cc1)c1cn(Cc2ccc(F)cc2F)c2ccc(=O)[nH]c2c1=O  High affinity 3',5'-cyclic-AMP phosphodiesterase 7A (Homo sapiens)         IC50         >            1000
4  Cc1ccccc1Cn1cc(C(=O)Nc2ccc(N3CCOCC3)cc2)c(=O)c2[nH]c(=O)ccc21  High affinity 3',5'-cyclic-AMP phosphodiesterase 7A (Homo sapiens)         IC50         =             266

---

Entries and their IC50 values follow.
# experimental.system: 3',5'-cyclic-AMP phosphodiesterase 4A (Homo sapiens, UniProt P27815)
# assay.name: Inhibition of human recombinant PDE4A4 expressed in baculovirus infected insect Sf21 cells after 30 mins by scintillation proximity assay
result.type: IC50

>>> df
                               given_smiles  value_reported
0  O=C(Nc1ccccc1)c1cn(Cc2c(F)cccc2F)c2ccc(=O)[nH]c2c1=O         1330 nM
1  O=C(O)Cc1ccc(NC(=O)c2cn(Cc3c(F)cccc3F)c3ccc(=O)[nH]c3c2=O)cc1       > 1000 nM
2  COc1ccc(NC(=O)c2cn(Cc3c(F)cccc3F)c3ccc(=O)[nH]c3c2=O)cc1       > 1000 nM
3  CNC(=O)c1ccc(NC(=O)c2cn(Cc3c(F)cccc3F)c3ccc(=O)[nH]c3c2=O)cc1          560 nM
4  N#Cc1cccc(NC(=O)c2cn(Cc3c(F)cccc3F)c3ccc(=O)[nH]c3c2=O)c1       > 1000 nM
5  CSc1ccc(NC(=O)c2cn(Cc3c(F)cccc3F)c3ccc(=O)[nH]c3c2=O)cc1       > 1000 nM

---

Entries and their IC50 values follow.
# experimental.system: 3',5'-cyclic-AMP phosphodiesterase 4A (Homo sapiens)
# assay.name: Inhibition of human recombinant PDE4A4 expressed in baculovirus infected insect Sf21 cells after 30 mins by scintillation proximity assay
result.type: IC50

In [3]: df
Out[3]:
                                given_smiles  value_reported
 0  O=C(Nc1ccc(OC(F)(F)F)cc1)c1cn(Cc2c(F)cccc2F)c2ccc(=O)[nH]c2c1=O       > 1000 nM
 1  O=C(Nc1ccc(N2CCOCC2)cc1)c1cn(Cc2c(F)cccc2Cl)c2ccc(=O)[nH]c2c1=O       > 1000 nM
 2  O=C(Nc1ccc(N2CCOCC2)cc1)c1cn(Cc2ccccc2Cl)c2ccc(=O)[nH]c2c1=O       > 1000 nM
 3  O=C(Nc1ccc(N2CCOCC2)cc1)c1cn(Cc2cc(F)cc(F)c2)c2ccc(=O)[nH]c2c1=O       > 1000 nM
 4  CCN(CC)c1ccc(NC(=O)c2cn(Cc3c(F)cccc3F)c3ccc(=O)[nH]c3c2=O)cc1          442 nM
 5  CC(=O)c1ccc(NC(=O)c2cn(Cc3c(F)cccc3F)c3ccc(=O)[nH]c3c2=O)cc1       > 1000 nM
 6  CCN(CC)c1ccc(NC(=O)c2cn(Cc3c(F)cccc3Cl)c3ccc(=O)[nH]c3c2=O)cc1       > 5000 nM
 7  O=C(Nc1ccc(S(=O)(=O)Nc2nccs2)cc1)c1cn(Cc2c(F)cccc2F)c2ccc(=O)[nH]c2c1=O          481 nM
 8  COc1ccc(NC(=O)c2cn(Cc3c(F)cccc3Cl)c3ccc(=O)[nH]c3c2=O)cc1Cl       > 1000 nM
 9  O=C(Nc1ccc(N2CCOCC2)cc1)c1cn(Cc2c(F)cccc2F)c2ccc(=O)[nH]c2c1=O          506 nM
10  N#Cc1ccc(NC(=O)c2cn(Cc3c(F)cccc3F)c3ccc(=O)[nH]c3c2=O)cc1       > 1000 nM
11  COc1cc(NC(=O)c2cn(Cc3c(F)cccc3Cl)c3ccc(=O)[nH]c3c2=O)cc(OC)c1OC       > 1000 nM
12  O=C(Nc1ccc(N2CCCCC2)cc1)c1cn(Cc2c(F)cccc2F)c2ccc(=O)[nH]c2c1=O       > 1000 nM
13  Cc1ccccc1Cn1cc(C(=O)Nc2ccc(N3CCOCC3)cc2)c(=O)c2[nH]c(=O)ccc21       > 1000 nM
14  COc1cc(NC(=O)c2cn(Cc3ccccc3)c3ccc(=O)[nH]c3c2=O)cc(OC)c1OC       > 1000 nM
15  O=C(Nc1ccc(N2CCOCC2)cc1)c1cn(Cc2ccc(F)cc2)c2ccc(=O)[nH]c2c1=O       > 5000 nM
16  CS(=O)(=O)c1ccc(NC(=O)c2cn(Cc3c(F)cccc3F)c3ccc(=O)[nH]c3c2=O)cc1       > 1000 nM
17  O=C(Nc1ccc(N2CCOCC2)cc1)c1cn(Cc2ccc(OC(F)(F)F)cc2)c2ccc(=O)[nH]c2c1=O       > 1000 nM
18  O=C(Nc1ccc(N2CCOCC2)cc1)c1cn(Cc2ccccc2C(F)(F)F)c2ccc(=O)[nH]c2c1=O       > 1000 nM
19  O=C(Nc1ccc(N2CCOCC2)cc1)c1cn(Cc2c(Cl)cccc2Cl)c2ccc(=O)[nH]c2c1=O       > 1000 nM
20  COc1cc(NC(=O)c2cn(Cc3ccc(F)cc3)c3ccc(=O)[nH]c3c2=O)cc(OC)c1OC       > 1000 nM

Sourced from ChEMBL document CHEMBL1909601
